Molecular target: FLuc-C-HiBiT (Photinus pyralis, UniProt P08659)
Construct: firefly luciferase with C-terminal HiBiT tag, E. coli expressed
Sequence (P08659 whole entry, looked up): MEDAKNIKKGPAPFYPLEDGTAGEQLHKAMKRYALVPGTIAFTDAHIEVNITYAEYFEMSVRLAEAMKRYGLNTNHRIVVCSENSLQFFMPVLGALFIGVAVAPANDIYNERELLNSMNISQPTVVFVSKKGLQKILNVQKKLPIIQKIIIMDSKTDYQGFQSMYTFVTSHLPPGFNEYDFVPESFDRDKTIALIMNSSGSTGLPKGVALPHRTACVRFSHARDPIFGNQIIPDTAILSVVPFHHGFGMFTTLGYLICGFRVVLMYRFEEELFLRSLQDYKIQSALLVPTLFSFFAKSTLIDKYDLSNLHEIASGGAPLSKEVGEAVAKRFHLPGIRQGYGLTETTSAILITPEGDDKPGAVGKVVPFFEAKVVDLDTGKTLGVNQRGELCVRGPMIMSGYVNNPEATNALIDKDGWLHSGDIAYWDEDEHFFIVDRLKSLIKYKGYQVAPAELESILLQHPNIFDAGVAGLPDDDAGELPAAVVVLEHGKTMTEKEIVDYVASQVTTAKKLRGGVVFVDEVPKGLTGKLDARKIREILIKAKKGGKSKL
Test: biochemical
Details: enzyme activity, 10 uM ATP; read-out: IC50 or SDR50 (mM) / FLuc E
observable: IC50 (mM)
Hi! Could you send only the number? It should be in mM, unit omitted.

Below: 3 molecules and their reported IC50.
molecule	observable	endpoint.value
CN(Cc1ccccc1)C(=O)[C@H]1C[C@@H](O)[C@H](O)[C@@H]2N=C(Nc3ccc(-n4cccn4)cc3)S[C@@H]21 [NCGC00401585-01]	IC50	0.0111
CCOc1cccc2cc(-c3nc4ccc(C(=O)O)cc4[nH]3)c(=O)oc12 [NCGC00138160-01]	IC50	0.000157
COc1ccc2nc(-c3cccc(C(C)=O)c3)sc2c1 [NCGC00167608-01]	IC50	0.00124

Let's switch to this molecule now.
*Q* Give the value of IC50 reported for the following: Cc1ccc(OCC(=O)Nc2cccc(-c3nc4ccccc4s3)c2)cc1 [NCGC00119153-02]
*A* 0.00989
